# MEASUREMENT_PROTOCOL: yeast TOR reporter LAP4-GFP retest – cell-based, third cherry pick, flow cytometry, confirmation (AID 504338);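 further: ratio to plate DMSO wells so 100% equals DMSO level rather than 0%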
# PARTICULARS: S. cerevisiae LAP4-GFP strain, 3 h, at 10 µM, hits give high values
MEASURED_METRIC: GFP response vs DMSO (%)

[[record]]
compound = "OCc1ccnc2c(O)cccc12"
measured_metric = "GFP response vs DMSO"
numeric_result = 101

[[record]]
compound = "Cc1ccc(Nc2cc(=O)[nH]c(=O)[nH]2)cc1C"
measured_metric = "GFP response vs DMSO"
numeric_result = 104

[[record]]
compound = "CC(=O)Nc1ccc(-c2nc3ccccc3o2)cc1"
measured_metric = "GFP response vs DMSO"
numeric_result = 108

[[record]]
compound = "Cc1ccc2c(Cl)cc(Cl)c(OCC(=O)O)c2n1"
measured_metric = "GFP response vs DMSO"
numeric_result = 100

[[record]]
compound = "COc1ccc(OC)c2c(C)cc(C)nc12"
measured_metric = "GFP response vs DMSO"
numeric_result = 103

[[record]]
compound = "O=C(Nc1ccccc1)ON=C1c2ccccc2-c2ccccc21"
measured_metric = "GFP response vs DMSO"
numeric_result = 106

[[record]]
compound = "Cc1ccc2c(Cl)cc(Cl)c(O)c2n1"
measured_metric = "GFP response vs DMSO"
numeric_result = 193

[[record]]
compound = "OCCNc1ncnc2ccc(Br)cc12"
measured_metric = "GFP response vs DMSO"
numeric_result = 98.6

[[record]]
compound = "COc1ccc(OC)c2c(=O)cc(C(=O)O)[nH]c12"
measured_metric = "GFP response vs DMSO"
numeric_result = 104

[[record]]
compound = "Cc1cn2c(N)c(C=C3C=C(Cl)C(=O)C(Cl)=C3)c(=O)nc2s1"
measured_metric = "GFP response vs DMSO"
numeric_result = 108

[[record]]
compound = "C/C(=C\\C(=O)c1ccccc1)Nc1cccc(O)c1"
measured_metric = "GFP response vs DMSO"
numeric_result = 107

[[record]]
compound = "O=C1c2ccccc2C(=O)c2c1cccc2N(CCO)CCO"
measured_metric = "GFP response vs DMSO"
numeric_result = 100

[[record]]
compound = "COc1ccccc1OCc1cc(C(=O)N2CCN(C)C(c3ccccc3)C2)no1 (stereo not drawn)"
measured_metric = "GFP response vs DMSO"
numeric_result = 106

